target: BRD4 (Homo sapiens, UniProt O60885); test: Time resolved fluorescence resonance energy transfer (TR-FRET) binding assay, bromodomain BRD4; details: one of the FRET assays described; read-out: FRET BRD4 IC50
RECORDED METRIC: IC50

Enquiry: Would you mind telling me what IC50 value was observed for Cc1nnn(C)c1-c1cnc2c3cnc(Cl)cc3n(C(c3ncccc3F)C3CCOCC3)c2c1 (stereo not drawn) [Example 316] ?
Return: < 10 nM

Enquiry: Which IC50 value is on record for Cc1nnn(C)c1-c1cnc2c3cnc(N4CCN(C5CC5)CC4)nc3n([C@H](c3ccccc3)C3CCOCC3)c2c1 [Example 157] ?
Return: < 10 nM

Enquiry: # input compound: Cc1nnn(C)c1-c1cnc2c3ccc([S+](C)[O-])nc3n([C@H](c3ccccc3)C3CCOCC3)c2c1 (stereo partly drawn) [Example 200] ; wanted: its IC50
Return: < 10 nM

Enquiry: Which value of IC50 has been reported for [2H]C([2H])([2H])c1nnn(C)c1-c1cnc2c3c(OCC)ncc(S(C)(=O)=O)c3n(C(c3ncccc3F)C3CCC(F)(F)CC3)c2c1 (stereo not drawn) [Example 74] in the records?
Return: < 10 nM

Enquiry: Field request: IC50 | item: [2H]C([2H])([2H])c1nnn(C)c1-c1cnc2c3c(OC(C)C)ncc(S(C)(=O)=O)c3n([C@H](c3ccccc3)C3CCOCC3)c2c1 [Example 58]
Return: < 1 nM

Enquiry: Param item = COc1ncc(Cl)c2c1c1ncc(-c3c(C)nnn3C)cc1n2[C@H](c1ccccc1)C1CCOCC1 [Example 40] ; retrieve measured IC50.
Return: < 1 nM

Enquiry: Recorded IC50 of [2H]C([2H])([2H])c1nnn(C)c1-c1cnc2c3ccc(N4CCN(C5CC5)CC4)nc3n([C@H](c3ccccc3)C3CCOCC3)c2c1 [Example 151] , please.
Return: < 10 nM

Enquiry: Consider the compound shown here: Cc1nnn(C)c1-c1cnc2c3cncc(Cl)c3n([C@H](c3ccccc3)C3CCOCC3)c2c1 [Example 34] What is its recorded IC50?
Return: < 10 nM

Enquiry: Report IC50 for COc1nccc2c3ncc(-c4c(C)nnn4C)cc3n(C(c3c(F)cc(F)cc3F)C3CCOCC3)c12 (racemic) [Example 24] please.
Return: < 10 nM

Enquiry: For the compound shown here, COCCNc1nccc2c3ncc(-c4c(C)nnn4C)cc3n([C@H](c3ccccc3)C3CCOCC3)c12 [Example 9] , give the reported IC50.
Return: < 10 nM

Enquiry: Requested field: IC50. Item: Cc1noc(C)c1-c1cnc2c3ccc(N4CCS(=O)(=O)CC4)nc3n([C@H](c3ccccc3)C3CCOCC3)c2c1 [Example 209]
Return: < 10 nM

Enquiry: Can you look up the measured IC50 of CCN(CCN(C)C)c1ccc2c3ncc(-c4c(OC)nnn4C)cc3n([C@H](c3ccccc3F)C3CCOCC3)c2n1 [Example 257] for me?
Return: < 1 nM

Enquiry: Tell me the measured IC50 of Cc1nnn(C)c1-c1cnc2c3ccnc(NCCO)c3n([C@H](c3ccccc3)C3CCOCC3)c2c1 [Example 11] , please.
Return: < 10 nM

Enquiry: So what's the measured IC50 for this one? COc1nnn(C)c1-c1cnc2c3ccc(-c4c(OC)nnn4C)nc3n([C@H](c3ccccc3F)C3CCOCC3)c2c1 [Example 253]
Return: < 10 nM

Enquiry: Record request: IC50 value, item Cc1nnn(C)c1-c1cnc2c3ccc(-c4c(C)nnn4C)nc3n([C@@H](c3ccccc3)C3CCOCC3)c2c1 [Example 164]
Return: < 10 nM

Enquiry: Param item = COc1nccc2c1c1ncc(-c3c(C)nnn3C)cc1n2[C@H](c1ccccc1F)C1CCOCC1 [Example 30] ; retrieve measured IC50.
Return: < 1 nM

Enquiry: // query IC50 value for entry Cc1nnn(C)c1-c1cnc2c3cncc(S(C)(=O)=O)c3n(C(c3ccccc3)C3CCC(F)(F)CC3)c2c1 (stereo not drawn) [Example 290]
Return: < 1 nM

Enquiry: Given the entry [2H]C([2H])([2H])c1nnn(C)c1-c1cnc2c3cc(C(C)(C)O)cnc3n([C@H](c3ncccc3F)C3CCOCC3)c2c1 [Example 352] , report its measured IC50.
Return: < 10 nM

Enquiry: Data request, read-out IC50, for [2H]C([2H])([2H])c1nnn(C)c1-c1cnc2c3c(OC)ncc(C(C)(C)O)c3n(C(c3ccccc3)C3CCC(F)(F)CC3)c2c1 (single isomer, unassigned) [Example 281]
Return: < 10 nM

Enquiry: Query (compound): [2H]C([2H])([2H])c1nnn(C)c1-c1cnc2c3c(OC)ncc(S(C)(=O)=O)c3n(C(c3ncccc3F)C3CCC(F)(F)CC3)c2c1 (stereo not drawn) [Example 72] ; field requested: IC50
Return: < 10 nM

Enquiry: // IC50 lookup, key: [2H]C([2H])([2H])c1nnn(C)c1-c1cnc2c3c(OC)nc(Cl)cc3n([C@H](c3ncccc3F)C3CCOCC3)c2c1 [Example 305]
Return: < 10 nM

Enquiry: # get_value(readout='IC50', item= Cc1nnn(C)c1-c1cnc2c3ccc(S(=O)(=O)N4CCCC4)nc3n([C@H](c3ccccc3)C3CCOCC3)c2c1 [Example 196] )
Return: < 10 nM

Enquiry: # IC50 lookup, item [2H]C([2H])([2H])c1nnn(C)c1-c1cnc2c3ccc(N4CC(C)S(=O)(=O)C(C)C4)nc3n([C@H](c3ccccc3)C3CCOCC3)c2c1 (stereo partly drawn) [Example 193]
Return: < 1 nM

Enquiry: Recorded IC50 of [2H]C([2H])([2H])c1nnn(C)c1-c1cnc2c3cncc(C(C)(C)O)c3n([C@H](c3ccccc3)C3CCOCC3)c2c1 [Example 291] , please.
Return: < 1 nM

Enquiry: Fill in the blank: the reported IC50 of CCOc1ncc(Cl)c2c1c1ncc(-c3c(C)nnn3C)cc1n2[C@H](c1ccccc1)C1CCOCC1 [Example 43] is ____.
Return: < 1 nM

Enquiry: Recorded IC50 for [2H]C([2H])([2H])c1nnn(C)c1-c1cnc2c3c(OCC)ncc(S(C)(=O)=O)c3n(C(c3ncccc3F)C3CCOCC3)c2c1 (stereo not drawn) [Example 69] , please?
Return: < 1500 nM

Enquiry: // IC50 lookup, key: Cc1nnn(C)c1-c1cnc2c3ccc(C#N)nc3n([C@H](c3ccccc3)C3CCOCC3)c2c1 [Example 169]
Return: < 10 nM

====

molecular target: UniProt O60885; test: Time resolved fluorescence resonance energy transfer (TR-FRET) binding assay, bromodomain BRD4; settings: one of the FRET assays described; read-out: FRET BRD4 IC50
RECORDED METRIC: IC50

Enquiry: Any idea what its IC50 is? The compound is Cc1nnn(C)c1-c1cnc2c3cnc(Cl)cc3n(C(c3ncccc3F)C3CCOCC3)c2c1 (single isomer, unassigned) [Example 318]
Return: < 0.01 µM

Enquiry: What does the record list as IC50 for [2H]C([2H])([2H])c1nnn(C)c1-c1cnc2c3ccc(C(C)(C)O)nc3n([C@H](c3ccccc3)C3CCOCC3)c2c1 ?
Return: < 0.01 µM

Enquiry: Could you share which IC50 value was measured for Cc1nnn(C)c1-c1cnc2c3ccc(-c4cnn(C(C)C)c4)nc3n([C@H](c3ccccc3)C3CCOCC3)c2c1 ?
Return: < 0.01 µM

Enquiry: Which IC50 value belongs to [2H]C([2H])([2H])c1nnn(C)c1-c1cnc2c3c(OC)nc(C(C)(C)O)cc3n(C(c3ccccc3)C3CCC(F)(F)CC3)c2c1 (stereo not drawn) [Example 346] ?
Return: < 0.001 µM

Enquiry: What does the data say about its IC50? Entry: COc1nccc2c3ncc(-c4c(C)nnn4C)cc3n(C(c3ccccc3F)C3CCOCC3)c12 (single isomer, unassigned) [Example 19]
Return: < 0.01 µM

Enquiry: # get_value(readout='IC50', item= Cc1nnn(C)c1-c1cnc2c3c(S(C)(=O)=O)ncc(Cl)c3n([C@H](c3ccccc3)C3CCOCC3)c2c1 )
Return: < 0.01 µM

====

biological target: BRD4 (Homo sapiens, UniProt O60885); assay: Time resolved fluorescence resonance energy transfer (TR-FRET) binding assay, bromodomain BRD4; conditions: one of the FRET assays described; read-out: FRET BRD4 IC50
pIC50: −log10 of the molar value.
RECORDED METRIC: pIC50

Enquiry: Could you share which pIC50 value was measured for CC(=O)c1ccc2c3ncc(-c4c(C)nnn4C)cc3n([C@H](c3ccccc3)C3CCOCC3)c2n1 [Example 171] ?
Return: > 8.00

Enquiry: Report pIC50 for Cc1nnn(C)c1-c1cnc2c3ccc(S(N)(=O)=O)nc3n([C@H](c3ccccc3)C3CCOCC3)c2c1 [Example 195] please.
Return: > 8.00

Enquiry: Field request: pIC50 | item: [2H]C([2H])([2H])c1nnn(C)c1-c1cnc2c3cc(C(C)(C)O)cnc3n([C@H](c3ccccc3)C3CCOCC3)c2c1 [Example 349]
Return: > 9.00

Enquiry: Please report the recorded pIC50 for COc1ncc(Br)c2c1c1ncc(-c3c(C)nnn3C)cc1n2[C@H](c1ccccc1)C1CCOCC1 [Example 38] .
Return: > 8.00

Enquiry: For the compound Cc1nnn(C)c1-c1cnc2c3c(S(C)(=O)=O)nccc3n([C@H](c3ccccc3)C3CCOCC3)c2c1 [Example 33] , what pIC50 is on record?
Return: > 9.00

Enquiry: Recorded pIC50 for [2H]C([2H])([2H])c1nnn(C)c1-c1cnc2c3ccc(C(C)(O)C4CC4)nc3n([C@H](c3ccccc3F)C3CCOCC3)c2c1 (stereo partly shown) [Example 242] , please?
Return: > 8.00

Enquiry: # query: pIC50 of entry [2H]C([2H])([2H])c1onc(C)c1-c1cnc2c3c(OC)ncc(S(C)(=O)=O)c3n([C@H](c3ccccc3)C3CCOCC3)c2c1 [Example 60]
Return: > 9.00
